- Tested Target: Acetylcholinesterase human (AChE) (Homo sapiens)
- Construct: purchased Sigma-Aldrich (Poznań, Poland)
- Method Description: AChE inhibition kinetics, Ellman's method combined with capillary electrophoresis
- Assay type: biochemical
- Run Parameters: inhibitor 0.02 mM
- Source text: In this work, we used the combined Ellman’s method with the capillary electrophoresis method developed by us for the determination of 4,4-dithio-bis-acid nitrobenzoic (DBAN) (main enzyme reaction product) in the presence of acetylthiocholine (ACth), 5-thio-2-nitrobenzoic acid (NTB), 5,5′-dithio-bis-2-nitrobenzoic acid (DTNB), acetylcholinesterase (AChE) and inhibitors (I), (II), (III) and (IV) of acetylcholinesterase. […]
// reported Vmax per item
Quantity: Vmax (mM/min)

# Molecule, Test Value
measured = [
    ("CN(C)CC(O)CN1C(=O)C2C(C1=O)C1(C)C(=O)C2(C)C(c2ccccc2)=C1c1ccccc1 (stereo not shown)", 0.63),
    ("CCC12C(=O)C(CC)(C(c3ccccc3)=C1c1ccccc1)C1C(=O)N(CC(O)CN(C)C)C(=O)C12 (stereo not shown)", 0.63),
    ("CCC12C(=O)C(CC)(C(c3ccccc3)=C1c1ccccc1)C1C(=O)N(CC(O)CNC(C)C)C(=O)C12 (stereo not shown)", 0.62),
    ("CC(C)NCC(O)CN1C(=O)C2C(C1=O)C1(C)C(=O)C2(C)C(c2ccccc2)=C1c1ccccc1 (stereo not shown)", 0.63),
]

---

// reported 1/Vo, mean per item
- Tested Target: Acetylcholinesterase human (AChE) (Homo sapiens, UniProt P22303)
- Construct: purchased Sigma-Aldrich (Poznań, Poland)
- Sequence (P22303 32-614): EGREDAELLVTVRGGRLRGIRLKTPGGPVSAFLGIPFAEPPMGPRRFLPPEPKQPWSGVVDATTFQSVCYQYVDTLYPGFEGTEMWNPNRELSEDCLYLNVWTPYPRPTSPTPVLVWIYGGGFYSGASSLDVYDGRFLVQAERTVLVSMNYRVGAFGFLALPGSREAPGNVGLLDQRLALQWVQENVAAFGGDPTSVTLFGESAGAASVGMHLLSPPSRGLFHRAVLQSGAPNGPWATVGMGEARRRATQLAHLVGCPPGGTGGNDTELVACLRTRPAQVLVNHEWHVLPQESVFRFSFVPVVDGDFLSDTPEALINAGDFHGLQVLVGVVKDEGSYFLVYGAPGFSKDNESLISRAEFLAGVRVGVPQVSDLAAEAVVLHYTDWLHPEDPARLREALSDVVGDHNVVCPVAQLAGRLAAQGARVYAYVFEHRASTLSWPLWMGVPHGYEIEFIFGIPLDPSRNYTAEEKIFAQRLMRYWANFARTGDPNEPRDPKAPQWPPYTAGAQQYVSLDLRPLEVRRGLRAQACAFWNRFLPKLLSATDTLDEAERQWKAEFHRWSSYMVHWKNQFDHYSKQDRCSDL
- Method Description: AChE inhibition kinetics, Ellman's method combined with capillary electrophoresis
- Assay type: biochemical
- Run Parameters: inhibitor 0.08 mM; acetylthiocholine 0.72 mM

# Compound, U, 1/Vo, mean
measured = [
    ("CCC12C(=O)C(CC)(C(c3ccccc3)=C1c1ccccc1)C1C(=O)N(CC(O)CN(C)C)C(=O)C12 (stereo not shown)", "min/mM", 5.40),
    ("CN(C)CC(O)CN1C(=O)C2C(C1=O)C1(C)C(=O)C2(C)C(c2ccccc2)=C1c1ccccc1 (stereo not shown)", "min/mM", 5.40),
    ("CC(C)NCC(O)CN1C(=O)C2C(C1=O)C1(C)C(=O)C2(C)C(c2ccccc2)=C1c1ccccc1 (stereo not shown)", "min/mM", 5.70),
    ("CCC12C(=O)C(CC)(C(c3ccccc3)=C1c1ccccc1)C1C(=O)N(CC(O)CNC(C)C)C(=O)C12 (stereo not shown)", "min/mM", 5.46),
]

---

// reported Peak area of product (4,4-dithio-bis-acid nitrobenzoic), mean per item
- Tested Target: Acetylcholinesterase human (AChE) (Homo sapiens)
- Construct: purchased Sigma-Aldrich (Poznań, Poland)
- Method Description: AChE inhibition kinetics, Ellman's method combined with capillary electrophoresis
- Type: biochemical
- Run Parameters: inhibitor 0.08 mM; acetylthiocholine 2.88 mM
Quantity: Peak area of product (4,4-dithio-bis-acid nitrobenzoic), mean

# Molecule, Test Value
data = [
    ("CCC12C(=O)C(CC)(C(c3ccccc3)=C1c1ccccc1)C1C(=O)N(CC(O)CNC(C)C)C(=O)C12 (stereo not shown)", 171159),
    ("CN(C)CC(O)CN1C(=O)C2C(C1=O)C1(C)C(=O)C2(C)C(c2ccccc2)=C1c1ccccc1 (stereo not shown)", 157575),
    ("CCC12C(=O)C(CC)(C(c3ccccc3)=C1c1ccccc1)C1C(=O)N(CC(O)CN(C)C)C(=O)C12 (stereo not shown)", 192894),
    ("CC(C)NCC(O)CN1C(=O)C2C(C1=O)C1(C)C(=O)C2(C)C(c2ccccc2)=C1c1ccccc1 (stereo not shown)", 135840),
]
